- TARGET OR TEST SYSTEM: Inhibitor of nuclear factor kappa-B kinase subunit beta (Homo sapiens, UniProt O14920)
- Sequence (O14920 whole entry): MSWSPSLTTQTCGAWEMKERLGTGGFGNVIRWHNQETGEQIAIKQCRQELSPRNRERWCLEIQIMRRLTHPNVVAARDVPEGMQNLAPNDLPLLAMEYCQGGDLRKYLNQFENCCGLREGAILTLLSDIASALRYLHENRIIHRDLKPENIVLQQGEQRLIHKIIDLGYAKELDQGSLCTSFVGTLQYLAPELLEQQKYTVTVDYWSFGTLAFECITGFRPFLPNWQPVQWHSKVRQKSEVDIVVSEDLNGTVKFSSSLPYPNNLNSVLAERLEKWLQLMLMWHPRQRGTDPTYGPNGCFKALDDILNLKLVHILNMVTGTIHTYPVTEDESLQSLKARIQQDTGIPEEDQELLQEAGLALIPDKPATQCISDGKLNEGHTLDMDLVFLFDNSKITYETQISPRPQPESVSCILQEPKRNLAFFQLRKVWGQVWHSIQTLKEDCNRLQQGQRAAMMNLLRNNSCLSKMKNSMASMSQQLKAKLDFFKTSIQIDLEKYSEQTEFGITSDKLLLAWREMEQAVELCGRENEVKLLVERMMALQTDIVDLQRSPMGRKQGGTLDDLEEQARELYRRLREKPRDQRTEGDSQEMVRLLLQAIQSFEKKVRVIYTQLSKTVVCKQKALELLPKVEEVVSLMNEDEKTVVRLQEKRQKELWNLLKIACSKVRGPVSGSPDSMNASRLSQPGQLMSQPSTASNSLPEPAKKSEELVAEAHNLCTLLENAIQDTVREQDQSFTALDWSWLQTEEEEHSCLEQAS
- MEASUREMENT PROTOCOL: Inhibition of human recombinant IKK2-mediated transfer of [gamma33P]ATP to biotinylated IkappaBalpha after 30 mins by scintillation counting
pIC50: −log10 of the molar value.
RESULT TYPE: pIC50

Answered cases to consult:
CHEMICAL STRING | pIC50
C[C@H]1CN(c2cc(C(=O)Nc3ccc4c(c3)-c3c(c(C(N)=O)nn3-c3ccc(F)cc3)CC4)c(Cl)cn2)CCN1C | 7.35
NC(=O)c1nn(-c2ccc(F)cc2)c2c1CCc1ccc(NC(=O)c3cc(N4CCCNCC4)ncc3Cl)cc1-2 | 7.57
NC(=O)c1nn(-c2ccc(F)cc2)c2c1CCc1ccc(NC(=O)c3cccnc3Cl)cc1-2 | 7.33
CNc1ncccc1C(=O)Nc1ccc2c(c1)-c1c(c(C(N)=O)nn1-c1ccc(F)cc1)CC2 | 5.49

1: CN(C)CCNc1cc(C(=O)Nc2ccc3c(c2)-c2c(c(C(N)=O)nn2-c2ccc(F)cc2)CC3)c(Cl)cn1
2: CN1CCN(c2cc(C(=O)Nc3ccc4c(c3)-c3c(c(C(N)=O)nn3-c3ccc(F)cc3)CC4)ccn2)CC1
3: CN1CCN(c2ccc(Cl)c(C(=O)Nc3ccc4c(c3)-c3c(c(C(N)=O)nn3-c3ccc(F)cc3)CC4)n2)CC1
4: NC(=O)c1nn(-c2ccc(F)cc2)c2c1CCc1ccc(NC(=O)c3nc(N4CCOCC4)ccc3Cl)cc1-2
5: NC(=O)c1nn(-c2ccc(F)cc2)c2c1CCc1ccc(NC(=O)c3cccnc3N)cc1-2
Prompt line: # desc sort on pIC50 across 5 compounds # format: label list in the order the request specifies
Response line: 1, 2, 3, 4, 5
(1: 7.15, 2: 6.90, 3: 6.46, 4: 5.90, 5: 5.63)
